Cited source: PubChem BioAssay (NCI)

# Tested on: DMS 273 small cell lung
# Test Details: NCI tumour cell line growth inhibition, 48 h
Below: a set of entries, each annotated with reported TGI.

Please review the following examples before continuing.
Compound: Clc1cc2nc[nH]c2cc1Cl
System Name: DMS 273 small cell lung
TGI: > 100 µM
--
Compound: CC(=O)OC1COC(n2c(O)c(N=Nc3ccc([N+](=O)[O-])cc3)c3cc(Br)c([N+](=O)[O-])cc32)C(OC(C)=O)C1OC(C)=O (stereo not given)
System Name: DMS 273 small cell lung
TGI: > 100 µM
--
Compound: C[C@]12CC[C@H](OC(=O)Cc3ccc(N(CCCl)CCCl)cc3)CC1CC[C@@H]1C2CC[C@]2(C)NC(=O)CCC12 (stereo not given in full)
System Name: DMS 273 small cell lung
TGI: 20.5 µM
--
Compound: COc1ccc(C(=C(C#N)C#N)c2ccc(OC)cc2)cc1
System Name: DMS 273 small cell lung
TGI: > 100 µM
--
Compound: COc1ccc2c(c1)CC[C@@H]1C2CC[C@]2(C)C(=N\O)/C(=N/O)CC12 (stereo not given in full)
System Name: DMS 273 small cell lung
TGI: 26.7 µM

Reported TGI ( `CC(=O)CC(=O)ON(C)C(C)=O` ) = > 100 µM

Given item `ClCCN(CC#CCCCC#CCN(CCCl)CCCl)CCCl` , the value recorded as its TGI is 16.6 µM
